Consider the following compounds and their measured pIC50 readings.
- MEASUREMENT_TARGET: recombinant human IDO1 enzyme (Homo sapiens)
- Construct: purchased NTRC NTRC-hlDO-10K
- Sequence (P14902 whole entry): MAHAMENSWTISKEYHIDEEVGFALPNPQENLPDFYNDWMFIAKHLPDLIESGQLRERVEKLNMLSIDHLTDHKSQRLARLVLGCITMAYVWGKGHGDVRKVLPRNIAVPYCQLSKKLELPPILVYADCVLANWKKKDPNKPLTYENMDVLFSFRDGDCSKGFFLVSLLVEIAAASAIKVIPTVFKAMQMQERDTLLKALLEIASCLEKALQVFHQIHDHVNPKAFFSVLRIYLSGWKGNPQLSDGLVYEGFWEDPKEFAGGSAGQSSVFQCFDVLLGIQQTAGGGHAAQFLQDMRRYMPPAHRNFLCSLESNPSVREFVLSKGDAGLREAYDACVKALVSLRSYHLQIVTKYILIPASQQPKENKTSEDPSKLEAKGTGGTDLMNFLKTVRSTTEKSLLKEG
- RUN_DESCRIPTION: In vitro hIDO1 enzyme activity test (NFK Green fluorescence)
- Type: biochemical
- SETTINGS: recombinant human IDO1, L-tryptophan substrate, pH 6.5
pIC50 here is simply -log10 of the concentration when that concentration is written in mol/L.

Reference set, count: 5
COMPOUND: c1cc2c(s1)C(C1CCC1)n1cncc1-2 (centres unmarked)
ENDPOINT_VALUE: 6.09
//
COMPOUND: c1cc2c(s1)C(C1CCCC1)n1cncc1-2 (single isomer, unassigned) [Example 74]
ENDPOINT_VALUE: 6.59
//
COMPOUND: c1cc2c(s1)C(C13CCC(CC1)CC3)n1cncc1-2 (single isomer, unassigned) [Example 48]
ENDPOINT_VALUE: 6.29
//
COMPOUND: c1cc2c(s1)C(C1CCOCC1)n1cncc1-2 (single isomer, unassigned) [Example 37]
ENDPOINT_VALUE: 5.62
//
COMPOUND: OC(CC1c2sccc2-c2cncn21)C1CCCCC1 (single isomer, unassigned) [Example 8]
ENDPOINT_VALUE: 7.19

c1ccc2c(C3CCC(C4c5sccc5-c5cncn54)CC3)ccnc2c1 (single isomer, unassigned) [Example 92] on recombinant human IDO1 enzyme (Homo sapiens) gives pIC50 = 6.16

FC1(CCC2c3sccc3-c3cncn32)CCCCC1 (centres unmarked) on recombinant human IDO1 enzyme (Homo sapiens) gives pIC50 = 7.34
